Hey, just so you know, these numbers are from paper PMC9482650.

Entries annotated with measured pKd
Target: T1, LNX2_2, Q8N448
T1 sequence (Q8N448 334-432, limits assumed, looked up): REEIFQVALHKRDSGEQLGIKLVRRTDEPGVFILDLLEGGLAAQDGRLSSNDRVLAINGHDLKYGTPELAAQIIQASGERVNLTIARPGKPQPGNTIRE
Assay: holdup assay
Set-up: key: below the threshold = too weak to quantify, mostly under pKd 3.1 to 4
Conditions: plain residues with an end cap or a label only (N-terminal biotin on a linker: ado-ado)
MEASURED PROPERTY: pKd

INSERT INTO assay_data (binder, measured_property, measured) VALUES
  ('RRRESYSTTV [EVI5, O60447]', 'pKd', 5.2),
  ('HSGYRLNDYV [CLDN14, O95500]', 'pKd', 4.56),
  ('PEYLGLDVPV [ERBB2, P04626]', 'pKd', 3.96),
  ('PRAEAEDSFL [PDGFRB, P09619]', 'pKd', 3.54),
  ('PAPSSGKDYV [CLDN1, O95832]', 'pKd', 4.07),
  ('PDGQCTVTEV [RNF146, Q9NTX7]', 'pKd', 5.08);
